src = ChEMBL document CHEMBL5154787

# test: Cardiotoxicity in aortic ring (unknown origin) assessed as relaxation of phenylephrine induced aortic ring contraction at 10 uM incubated for 1 hr
# Assay type: toxicity, tissue-based, Aorta
# Set-up: scale not given: the % may be the effect or the level left
# measurement_parameters: human
readout_kind: Activity (%)
Please reply with the bare figure in % and do not write the unit itself.

{"chemical_string": "CC(C)C[C@](C)(N)COc1cnc(-c2ccnc(Cl)c2)cc1C(F)F", "readout_kind": "Activity", "measure_unit": "%", "endpoint_result": 81}
{"chemical_string": "CC(C)C[C@](C)(N)COc1cnc(-c2ccnc(C(F)F)c2)cc1C(F)F", "readout_kind": "Activity", "measure_unit": "%", "endpoint_result": 58}

Please turn your attention to the following entry.
Recorded Activity (compound COC(=O)Nc1cc(-c2ccc(OC[C@@](C)(N)CC(C)C)c(Cl)n2)ccn1 ): 74

====

# study_target: AP2-associated protein kinase 1 (Homo sapiens, UniProt Q2M2I8)
# Sequence (Q2M2I8 whole entry): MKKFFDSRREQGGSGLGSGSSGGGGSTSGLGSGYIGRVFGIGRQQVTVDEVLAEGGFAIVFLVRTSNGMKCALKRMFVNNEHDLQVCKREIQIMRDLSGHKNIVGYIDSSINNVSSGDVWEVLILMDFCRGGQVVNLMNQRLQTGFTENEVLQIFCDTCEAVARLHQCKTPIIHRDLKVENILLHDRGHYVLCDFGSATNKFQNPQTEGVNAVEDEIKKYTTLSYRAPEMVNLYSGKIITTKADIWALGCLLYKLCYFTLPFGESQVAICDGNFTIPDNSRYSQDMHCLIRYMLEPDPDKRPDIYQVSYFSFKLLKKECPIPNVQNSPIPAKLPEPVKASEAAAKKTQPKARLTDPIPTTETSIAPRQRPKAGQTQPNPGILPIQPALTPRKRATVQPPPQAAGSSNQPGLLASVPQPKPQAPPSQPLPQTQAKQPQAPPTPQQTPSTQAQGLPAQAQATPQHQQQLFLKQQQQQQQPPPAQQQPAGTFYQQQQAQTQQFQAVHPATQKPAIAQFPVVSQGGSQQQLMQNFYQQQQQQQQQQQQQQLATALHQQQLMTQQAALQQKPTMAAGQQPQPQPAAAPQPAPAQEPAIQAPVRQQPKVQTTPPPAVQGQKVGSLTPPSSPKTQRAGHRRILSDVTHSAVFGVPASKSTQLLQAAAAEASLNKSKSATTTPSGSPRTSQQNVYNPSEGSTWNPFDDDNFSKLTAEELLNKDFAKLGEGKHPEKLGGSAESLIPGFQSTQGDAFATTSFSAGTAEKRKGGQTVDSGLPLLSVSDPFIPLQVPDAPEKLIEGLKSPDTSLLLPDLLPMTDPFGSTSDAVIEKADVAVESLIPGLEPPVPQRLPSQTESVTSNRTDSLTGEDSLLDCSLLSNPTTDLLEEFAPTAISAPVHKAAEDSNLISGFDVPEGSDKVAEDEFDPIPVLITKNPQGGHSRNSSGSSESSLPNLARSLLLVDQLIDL
# test: Inhibition of bacterially expressed GST-Xa-tagged human AAK1 using 5-FAM-labelled Aha-KEEQSQITSQVTGQIGWR-NH2 peptide as substrate incubated for 3 hrs in presence of ATP by electrophoretic analysis
pIC50: −log10 of the molar value.
I would appreciate it if you labelled entries label 1 when pIC50 is 9 or higher, otherwise label 0.

Problem: Please tell me: is the compound CC(=O)Nc1cc(-c2ccc(OC[C@@H](N)CC(C)C)c(OC(F)(F)F)c2)ccn1 at or over 9 in terms of pIC50?
Result: label 1

Problem: Please tell me: is the compound CC(=O)Nc1cc(-c2ccc(OC[C@@H](N)CC(C)C)cc2)ccn1 at or over 9 in terms of pIC50?
Result: label 0

Problem: Please tell me: is the compound COC(=O)Nc1cc(-c2ccc(OC[C@@](C)(N)CC(C)C)c(C(F)F)c2)ccn1 at or over 9 in terms of pIC50?
Result: label 1

Problem: Please tell me: is the compound COC(=O)Nc1cc(-c2ccc(OC[C@@](C)(N)CC(C)C)c(C(F)(F)F)c2)ccn1 at or over 9 in terms of pIC50?
Result: label 1

Problem: Please tell me: is the compound CC(=O)Nc1cc(-c2cc(F)c(OC[C@@H](N)CC(C)C)c(C(F)(F)F)c2)ccn1 at or over 9 in terms of pIC50?
Result: label 0

Problem: Please tell me: is the compound CC(=O)Nc1cc(-c2ccc(OC[C@@H](N)CC(C)C)c(F)c2)ccn1 at or over 9 in terms of pIC50?
Result: label 0

Problem: Please tell me: is the compound COC(=O)Nc1cc(-c2cnc(OC[C@@](C)(N)CC(C)C)cc2C)ccn1 at or over 9 in terms of pIC50?
Result: label 0

Problem: Please tell me: is the compound CC(=O)Nc1cc(-c2ccc(OC[C@@H](N)CC(C)C)c(C)c2)ccn1 at or over 9 in terms of pIC50?
Result: label 1

Problem: Please tell me: is the compound COC(=O)Nc1cc(-c2ccc(OC[C@@](C)(N)CC(C)C)c(C)c2C)ccn1 (racemic) at or over 9 in terms of pIC50?
Result: label 0

====

# test: Metabolic stability in human liver microsomes assessed as parent compound remaining at 0.5 uM incubated for 10 mins in presence of NADPH by LC-MS/MS analysis
# Format: ADME, Microsome
# measurement_parameters: read-out: Stability
Reported remaining at 10 min, 0.5 µM by item:
Please reply with the bare figure in % and do not write the unit itself.

// worked examples, remaining at 10 min, 0.5 µM included
{"molecule": "COC(=O)Nc1cc(-c2ccc(OC[C@@](C)(N)CC(C)C)c(Cl)c2)ccn1 (racemic)", "measure_unit": "%", "remaining at 10 min, 0.5 µM": 81}
{"molecule": "COC(=O)Nc1cc(-c2ccc(OC[C@@](C)(N)CC(C)C)c(C(F)F)c2)ccn1", "measure_unit": "%", "remaining at 10 min, 0.5 µM": 88}
{"molecule": "COC(=O)Nc1cc(-c2cc(C)c(OC[C@@](C)(N)CC(C)C)cn2)ccn1", "measure_unit": "%", "remaining at 10 min, 0.5 µM": 100}
{"molecule": "COC(=O)Nc1cc(-c2ccc(OC[C@@](C)(N)CC(C)C)cn2)ccn1 (racemic)", "measure_unit": "%", "remaining at 10 min, 0.5 µM": 93}
{"molecule": "COC(=O)Nc1cc(-c2cnc(OC[C@@](C)(N)CC(C)C)c(Cl)c2)ccn1", "measure_unit": "%", "remaining at 10 min, 0.5 µM": 90}
{"molecule": "CC(=O)Nc1cc(-c2cc(F)c(OC[C@@H](N)CC(C)C)c(C(F)(F)F)c2)ccn1", "measure_unit": "%", "remaining at 10 min, 0.5 µM": 74}
{"molecule": "Cc1cc(-c2ccnc(C(F)F)c2)ncc1OC[C@@](C)(N)CC(C)C", "measure_unit": "%", "remaining at 10 min, 0.5 µM": 83}
{"molecule": "COC(=O)Nc1cc(-c2cc(OC)c(OC[C@@](C)(N)CC(C)C)cn2)ccn1", "measure_unit": "%", "remaining at 10 min, 0.5 µM": 91}
{"molecule": "CC(=O)Nc1cc(-c2ccc(OC[C@@](C)(N)CC(C)C)c(C(F)F)c2)ccn1", "measure_unit": "%", "remaining at 10 min, 0.5 µM": 74}
{"molecule": "COC(=O)Nc1cc(-c2ccc(OC[C@@](C)(N)CC(C)C)c(C#N)c2)ccn1", "measure_unit": "%", "remaining at 10 min, 0.5 µM": 57}

Recorded remaining at 10 min, 0.5 µM (molecule COC(=O)Nc1cc(-c2ccc(OC[C@@](C)(N)CC(C)C)nc2)ccn1 ): 100

Recorded remaining at 10 min, 0.5 µM (molecule CC(=O)Nc1cc(-c2ccc(OC[C@@H](N)CC(C)C)c(C#N)c2)ccn1 ): 87

Recorded remaining at 10 min, 0.5 µM (molecule COC(=O)Nc1cc(-c2ccc(OC[C@@](C)(N)CC(C)C)c(C3CC3)c2)ccn1 ): 100

Recorded remaining at 10 min, 0.5 µM (molecule COC(=O)Nc1cc(-c2ccc(OC[C@@](C)(N)CC(C)C)c(C)c2C)ccn1 (racemic) ): 93

Recorded remaining at 10 min, 0.5 µM (molecule CC(=O)Nc1cc(-c2ccc(OC[C@@](C)(N)CC(C)C)c(F)c2)ccn1 ): 91

Recorded remaining at 10 min, 0.5 µM (molecule COC(=O)Nc1cc(-c2ccc(OC[C@@](C)(N)CC(C)C)c(C)n2)ccn1 ): 95

====

# test: Metabolic stability in rat liver microsomes assessed as parent compound remaining at 0.5 uM incubated for 10 mins in presence of NADPH by LC-MS/MS analysis
# Assay type: ADME, Microsome
# measurement_parameters: read-out: Stability
readout_kind: remaining at 10 min, 0.5 µM

{"compound": "COC(=O)Nc1cc(-c2ccc(OC[C@@](C)(N)CC(C)C)c(C(F)F)n2)ccn1", "endpoint_result": "91%"}

Recorded remaining at 10 min, 0.5 µM (compound CC(C)C[C@](C)(N)COc1cnc(-c2ccnc(Cl)c2)cc1Cl ): 98%

Recorded remaining at 10 min, 0.5 µM (compound CC(=O)Nc1cc(-c2cc(F)c(OC[C@@H](N)CC(C)C)c(C(F)(F)F)c2)ccn1 ): 91%

Recorded remaining at 10 min, 0.5 µM (compound COC(=O)Nc1cc(-c2ccc(OC[C@@](C)(N)CC(C)C)c(C3CC3)c2)ccn1 ): 80%

====

Reported IC50 by item:
# study_target: AP2-associated protein kinase 1 (Homo sapiens)
# test: Inhibition of bacterially expressed GST-Xa-tagged human AAK1 using 5-FAM-labelled Aha-KEEQSQITSQVTGQIGWR-NH2 peptide as substrate incubated for 3 hrs in presence of ATP by electrophoretic analysis
Please reply with the bare figure in nM and do not write the unit itself.

// worked examples, IC50 included
{"compound": "CC(=O)Nc1cc(-c2ccc(OC[C@@](C)(N)CC(C)C)c(OC(F)(F)F)c2)ccn1", "endpoint_result": 0.8}
{"compound": "COC(=O)Nc1cc(-c2ccc(OC[C@@](C)(N)CC(C)C)c(C)c2)ccn1 (racemic)", "endpoint_result": 0.8}
{"compound": "CC(C)C[C@](C)(N)COc1cnc(-c2ccnc(Cl)c2)cc1C(F)F", "endpoint_result": 0.8}
{"compound": "COC(=O)Nc1cc(-c2ccc(OC[C@@H](N)CC(C)C)c(F)c2)ccn1", "endpoint_result": 1.2}

Please turn your attention to the following entry.
Recorded IC50 (compound COC(=O)Nc1cc(-c2cc(C)c(OC[C@@](C)(N)CC(C)C)cn2)ccn1 ): 1.7

====

# test: Metabolic stability in rat liver microsomes assessed as parent compound remaining at 0.5 uM incubated for 10 mins in presence of NADPH by LC-MS/MS analysis
# Type: ADME, Microsome
# measurement_parameters: read-out: Stability
readout_kind: remaining at 10 min, 0.5 µM
Form field: result (number plus unit)

{"molecule": "COC(=O)Nc1cc(-c2ccc(OC[C@@](C)(N)CC(C)C)c(C#N)c2)ccn1", "remaining at 10 min, 0.5 µM": "88%"}
{"molecule": "CC(C)C[C@](C)(N)COc1cnc(-c2ccnc(C(F)F)c2)cc1C(F)F", "remaining at 10 min, 0.5 µM": "85%"}
{"molecule": "COC(=O)Nc1cc(-c2ccc(OC[C@@](C)(N)CC(C)C)c(C(F)(F)F)c2)ccn1", "remaining at 10 min, 0.5 µM": "74%"}
{"molecule": "CC(=O)Nc1cc(-c2ccc(OC[C@@H](N)CC(C)C)c(C)c2)ccn1", "remaining at 10 min, 0.5 µM": "99%"}
{"molecule": "COC(=O)Nc1cc(-c2cnc(OC[C@@](C)(N)CC(C)C)cc2C)ccn1", "remaining at 10 min, 0.5 µM": "87%"}

Recorded remaining at 10 min, 0.5 µM (molecule COC(=O)Nc1cc(-c2cc(C(F)(F)F)c(OC[C@@](C)(N)CC(C)C)cn2)ccn1 ): 79%

Recorded remaining at 10 min, 0.5 µM (molecule CC(=O)Nc1cc(-c2ccc(OC[C@@](C)(N)CC(C)C)c(F)c2)ccn1 ): 92%

Recorded remaining at 10 min, 0.5 µM (molecule CC(=O)Nc1cc(-c2ccc(OC[C@@H](N)CC(C)C)c(F)c2)ccn1 ): 80%

Recorded remaining at 10 min, 0.5 µM (molecule COC(=O)Nc1cc(-c2cc(C(F)F)c(OC[C@@](C)(N)CC(C)C)cn2)ccn1 ): 87%

Recorded remaining at 10 min, 0.5 µM (molecule Cc1cc(-c2cc(Cl)c(OC[C@@](C)(N)CC(C)C)cn2)ccn1 ): 73%

Recorded remaining at 10 min, 0.5 µM (molecule COC(=O)Nc1cc(-c2ccc(OC[C@@](C)(N)CC(C)C)c(C)c2C)ccn1 (racemic) ): 83%

Recorded remaining at 10 min, 0.5 µM (molecule CC(=O)Nc1cc(-c2cc(F)c(OC[C@@H](N)CC(C)C)c(Cl)c2)ccn1 ): 97%
